experimentalTarget: T1, eIF4E (residues 69–248), purified (Drosophila melanogaster, UniProt P48598-2 69-248)
T1 construct: eIF4E, Drosophila melanogaster, residues 69–248; the methods say the tag was cleaved with HRV3C; also called truncated eIF4E; eIF4E trunc; not shown: His6, N-terminal, cleaved
T1 sequence (looked up): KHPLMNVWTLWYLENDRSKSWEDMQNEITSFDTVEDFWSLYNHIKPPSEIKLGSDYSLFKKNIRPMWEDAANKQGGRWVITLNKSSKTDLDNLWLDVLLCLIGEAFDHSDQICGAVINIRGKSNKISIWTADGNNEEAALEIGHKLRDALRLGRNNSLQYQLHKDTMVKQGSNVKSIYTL
procedureSummary: ITC; VP-ITC, 20 °C; eIF4E (69–248, WT or mutant, 1–20 μM) in the cell, tenfold concentrated GB1-stabilized peptides titrated in; 20 mM Na-phosphate pH 7.0, 150 mM NaCl; one-site binding model
experimentalConditions: both partners purified
assayMetric: stoichiometry N
Provide a numeric answer; units are not to be included.

binder	stoichiometry N
eIF4G peptide (residues 578–650) fused C-terminally to GB1 (domain or fragment, Drosophila melanogaster, UniProt O61380 578-650, looked up, eIF4G, Drosophila melanogaster, residues 578–650 (methods and legends); source: E. coli BL21 Star (DE3), purified (amylose, TEV cleavage, anion exchange, SEC); not shown: MBP, N-terminal, cleaved; GB1, C-terminal, kept) PETTLNDKQDSTDLKVKVSAKISSIINYNEGQWSPNNPSGKKQYDREQLLQLREVKASRIQPEVKNVSILPQP	0.99

What value of stoichiometry N has been reported for the following binder? KSYTRSRLMDIRNGMFN (domain or fragment) [CUP C peptide fused C-terminally to GB1]
1.01

Which measured stoichiometry N value corresponds to ALMHRSKESFVMPRIATCDDIELEGRLRRMNIWRT (domain or fragment) [CUP L+NC peptide fused C-terminally to GB1] ?
0.98
